Data origin, for the record: ChEMBL document CHEMBL1201862

Heads up, these compounds all have GI50 values measured for HCT-15.

smiles.str	measurement.target	GI50
O=C(Cc1ccccc1)NN1C(=O)/C(=C\c2ccccc2O)S/C1=N\c1ccccc1	HCT-15	> 100 µM
O=CN1CCN(c2ccc3ccc(O)nc3n2)CC1	HCT-15	> 100 µM
C[C@]12C[C@@H](c3ccccc3)Nc3ccccc3N1C(c1ccccc1)=NO2	HCT-15	35.4 µM
O=S1(=O)N=C(SCc2c[nH]c3ccccc23)N(c2ccccc2)c2ccncc21	HCT-15	> 100 µM

* * *

Test system: SNB-75
Assay: NCI tumour cell line growth inhibition, 48 h
Activity calls are given as the source filed them. Rule as the data show it: active = GI50 up to about 1.1 µM and inactive = higher.
Outcome codes: TRUE for active, FALSE for inactive

molecule	label
CC(C)CC(=O)NC(Nc1ccc(S(=O)(=O)Nc2ncccn2)cc1)(C(F)(F)F)C(F)(F)F	FALSE
CC1CC(C(=O)OC2OC(COC3OC(CO)C(OC4OC(C)C(O)C(O)C4O)C(O)C3O)C(O)C(O)C2O)C2CCC3(C)C(=CCC4(C)C3CCC3C(C)(CO)C(O)C(O)CC34C)C2C1C (centres undefined)	FALSE
O=C1CC(c2c[nH]c3ccccc23)C(=O)N1 (centres undefined)	FALSE
FC(F)(F)c1nc2ccc3[nH]c4c(-c5ccccc5)nccc4c3c2[nH]1	FALSE
NC(CSSCC(N)Cc1ccccc1)Cc1ccccc1 (centres undefined)	FALSE
O=C1OC(c2cccc(C(F)(F)F)c2)(c2cccc(C(F)(F)F)c2)c2ccc3ccccc3c21	FALSE
CC(=O)O[C@H]1C(=O)[C@]2(C)[C@@H](OC(=O)OCCC(O)CO)C[C@H]3OC[C@@]3(OC(C)=O)[C@H]2[C@H](OC(=O)c2ccccc2)[C@]2(O)C[C@H](OC(=O)[C@H](O)[C@@H](NC(=O)c3ccccc3)c3ccccc3)C(C)=C1C2(C)C (some centres undefined)	TRUE
O=C(O)CCC(NC(=O)c1ccc(Nc2nc3ccc(C(F)(F)F)cc3nc2C(=O)O)cc1)C(=O)O (centres undefined)	FALSE
CCOC(=O)C(=C=C=C(c1ccccc1)c1ccccc1)C(=O)OCC	FALSE

* * *

Test system: NCI-H23
Assay: NCI tumour cell line growth inhibition, 48 h
The source made the active and inactive calls. Rule as the data show it: active = GI50 up to about 1.1 µM and inactive = higher. Non-standard residues stand in square brackets, D forms with d. Residues, ends and D or L forms follow the SMILES beside them. *: point of attachment. X30 = COC1=CC(=O)N(C(=O)[C@@H](O*)C(C)C)[C@H]1Cc1ccccc1; NMeL = CN[C@@H](CC(C)C)C(=O)O; Cbz = O=C(OCc1ccccc1)*

molecule	GI50
COc1ccc(N2C(=O)C3c4[nH]c5c(C)cccc5c4C4CCC(C(C)C)CC4C3C2=O)cc1 (stereo not given)	17.3 µM (inactive)
CCC(=O)NCC1(c2c[nH]c3ccccc23)SCCS1	> 100 µM (inactive)
COc1ccc(-c2c(-c3ccccc3)c(C)nc3[nH]c(=S)[nH]c(=S)c23)cc1OC	47.4 µM (inactive)
CC(=O)c1cc2c3c(c1)c1cc4c(cc1c(=O)n3CC2)OCO4	75.5 µM (inactive)
N/N=c1/nc2n(c3ncccc13)C=CNN2	> 100 µM (inactive)
CCOC(=O)CC1=Nc2ccccc2SC1	> 100 µM (inactive)
COc1cccc2c(NNc3ccc(Cl)cc3)c3ccc([N+](=O)[O-])cc3nc12	13.3 µM (inactive)
O=C1/C(=C\c2ccc(Br)cc2)CCCc2ccccc21	17.1 µM (inactive)
C/C(CCn1[nH]c(=O)ccc1=O)=N\O	> 100 µM (inactive)
CC(=O)C(C(C)=O)=C1CCCC(O)O1 (stereo not given)	> 100 µM (inactive)
N#CC1(C#N)C2C=CC(C3CC=CC32)C1(C#N)C#N (stereo not given)	8.32 µM (inactive)
NS(=O)(=O)c1ccc(NC(=O)c2cccc3c(=O)c4ccccc4[nH]c23)cc1	67.3 µM (inactive)
CC(=O)Nc1ccc(NS(=O)(=O)c2ccc3nc(C)n(NS(=O)(=O)c4ccc(NC(C)=O)cc4)c(=O)c3c2)cc1	> 100 µM (inactive)
COC(=O)c1cc(=O)nc2cc3cccccc3n12	> 100 µM (inactive)
COC1=CC(=O)N(C(=O)[C@@H](OC(=O)[C@@H]2CCCN2C(=O)[C@@H]2CCCN2C(=O)[C@H](CC(C)C)N(C)C(=O)[C@@H](NC(=O)[C@@H](NC(=O)OCc2ccccc2)C(C)C)C(C)C)C(C)C)[C@H]1Cc1ccccc1 (Cbz-VV[NMeL]PP-X30)	> 100 µM (inactive)
C[C@H](NC(=O)C(Cc1ccccc1)(Cc1ccc(O)cn1)NC(=O)c1ccccc1)c1ccccc1 (stereo not given in full)	22 µM (inactive)
CCN(CC(=O)O)C(=O)c1cccnc1	> 100 µM (inactive)
O=S(=O)(Nc1ccccc1)c1ccc(-c2c3nc(c(-c4ccc(S(=O)(=O)Nc5ccccc5)cc4)c4ccc([nH]4)c(-c4ccc(S(=O)(=O)Nc5ccccc5)cc4)c4nc(c(-c5ccc(S(=O)(=O)Nc6ccccc6)cc5)c5ccc2[nH]5)C=C4)C=C3)cc1	> 31.6 µM (inactive)
COc1ccc(NC(=O)CC/C(CC(=O)c2ccco2)=N/NC(=O)C(N)=O)cc1	38.3 µM (inactive)
COC(=O)/C(=N\Nc1nc(S)nn1N)C(C#N)c1ccc(Cl)cc1 (stereo not given)	> 100 µM (inactive)
COCN1COCN(C)C1=O	> 100 µM (inactive)
CC1(C)[C@@H](Cn2cnc3c(N)ncnc32)CC[C@@]1(C)CO	55 µM (inactive)
c1ccc(/N=C2\c3ccccc3CN2c2ccccc2)cc1	> 100 µM (inactive)
O=C(O/N=C1/CCCC/C1=C\c1ccccc1)c1ccc(Cl)cc1	> 100 µM (inactive)
O=C1c2ccccc2C(=O)c2c1c1cc(O)ccc1n2Cc1ccc(Cl)cc1Cl	7.23 µM (inactive)
